All values here come from PubChem BioAssay (NCI).

Tested on: KM12 colon
Assay: NCI-60 one-dose screen, 48 h (100 = growth as untreated, 0 = no growth, -100 = all killed)
Conditions: 10 µM
The panel holds about 83,000 compounds, 20% with a hit somewhere; the sample as a whole holds those more often.
# cutoff 70% applies to growth; >= gives criterion met, < gives criterion not met

Consider the worked cases shown below.
Ask: Entry COc1cccc(O)c1/C=C1\SCc2cc3c(OC)cccc3[o+]c21 : is its growth no less than 70%?
Reply: criterion met

Ask: Hi, just wondering whether C#C[C@]1(O)CC[C@H]2[C@@H]3CC=C4c5sc(Nc6ccc(N(C)C)cc6)nc5CC[C@]4(C)[C@H]3CC[C@@]21C shows growth of 70% or higher.
Reply: criterion not met

Continuing:
Ask: State whether the measured growth reaches 70%, counting equality as reaching it, for C#CCOc1cc(N(CC)CC)ccc1C(C(=O)NC(C)(C)C)N(C(=O)C1CCc2cc(F)ccc2O1)c1ccc(F)cc1F (configuration not stated)
Reply: criterion not met

Ask: Hi, just wondering whether COc1ccc2[nH]cc(-c3nc(N)nnc3-c3cn(C)c4ncc(Br)cc34)c2c1 shows growth of 70% or higher.
Reply: criterion not met

Ask: growth >= 70% for COc1ccc(Cn2cc(C#N)c(N)c2C(C)=O)c(OC)c1 ?
Reply: criterion met

Ask: Check this molecule for growth at or above 70%: COc1ccc(Cc2nn(CC(=O)N/N=C/c3ccc(Br)cc3)c(=O)c3c(C)noc23)cc1
Reply: criterion not met
